Attribution: PubChem BioAssay AID2685

Test Details: qHTS Assay for Lipid Storage Modulators in Drosophila S3 Cells; also: potency is read from the fitted curve at half-maximal effect
Condition Description: BODIPY lipid droplet fluorescence, 18-24 h, cells fed with added oleic acid; series mostly up to 46.1 µM
Screen size: about 320,000 compounds; about 2,100 (0.66%) were called active. Roughly 53% stayed inconclusive and do not appear here. This is one part of a sample in which actives are shown more often than they occur.
Assay Metric: Potency

CN(c1ccccc1)S(=O)(=O)c1cccc(NC(=O)CSc2nnc(C3CC3)n2C)c1: 23.1 µM (active)
CC1=NN(C(C#N)c2ccc(F)cc2)C(c2ccccc2)C1 (stereo not given): inactive
CC12CCC(=O)C=C1CCC1C2C(=O)CC2(C)C1CCC2(O)C(=O)CO (stereo not given): 16.4 µM (active)
O=CC1=C(N2CCOCC2)/C(=C\c2ccccc2)CC1: inactive
Fc1ccc(NC(=S)N2CCc3ccccc32)cc1: 16.4 µM (active)

Potency in this record for O=C(NCC(=O)N(CCN1CCOCC1)C(C(=O)NC1CCCC1)c1ccccc1)c1cccs1 (stereo not given) : inactive

So for COc1ccc(S(=O)(=O)N2CCN(c3ccccn3)CC2)c(OC)c1 , the logged Potency turned out to be inactive

Potency recorded for this compound, CC(C)C(NC(=O)C12CC3CC(CC(C3)C1)C2)C(=O)N/N=C/C1=C(N2CCOCC2)C(=C\c2cccc([N+](=O)[O-])c2)/CC1 (stereo not given) , is inactive

Just so you know, measured Potency for O=C(COC(=O)COc1ccccc1)NC1CCCC1 came out at inactive

Item: CC(=O)Nc1ccc(NC(=O)CSc2nnc(C3CC3)n2C)cc1 | Potency: inactive
